Biological target: T1, hCD138 (human Syndecan-1), extracellular domain (human) (UniProt P18827)
T1 sequence: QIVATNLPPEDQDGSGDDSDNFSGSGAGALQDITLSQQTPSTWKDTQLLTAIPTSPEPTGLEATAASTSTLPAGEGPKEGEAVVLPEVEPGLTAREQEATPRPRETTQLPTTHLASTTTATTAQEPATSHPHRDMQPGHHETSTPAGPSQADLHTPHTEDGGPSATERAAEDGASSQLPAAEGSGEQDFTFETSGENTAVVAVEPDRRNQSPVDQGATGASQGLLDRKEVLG
Test: SPR; bivalent (avidity) set-up: CD138 amine-coupled to CM5 chip (240 RU), IgG as analyte 33-300 nM; Biacore T200, HBS-P+ pH 7.4, 25 °C; 1:1 Langmuir model
EXPERIMENTAL READOUT: log10 of koff (log10 of the value in s⁻¹)
Hello, just confirming the data are log10 of koff with units of s⁻¹.

{"BINDER": "<CD138> Hb-La (antibody, V domains shown) VH: QVQLQQSGSELMMPGASVKISCKATGYTFTGYWIEWVKQRPGHGLEWIGEILPGTGRTIYNEKFKGKATFTADISSNTVQMQLSSLTSEDSAVYYCARRDYYGNFYYAMDYWGQGTSVTVSS VL: DIQMTQSTSSLSASLGDRVTISCSASQGINNYLNWYQQKPDGTVELLIYYTSTLHSGVPSRFSGSGSGTDYSLTISNLEPEDIGTYYCQQYSKLPRTFGGGTKLEIK", "EXPERIMENTAL READOUT": "log10 of koff", "ASSAY RESULT": -3.92}
{"BINDER": "<CD138> Hb-Lw (antibody, V domains shown) VH: QVQLQQSGSELMMPGASVKISCKATGYTFTGYWIEWVKQRPGHGLEWIGEILPGTGRTIYNEKFKGKATFTADISSNTVQMQLSSLTSEDSAVYYCARRDYYGNFYYAMDYWGQGTSVTVSS VL: DIQMTQSTSSLSASLGDRVTISCSASQGINNYLNWYQQKPDGTVELLIYYTSTLQSGVPSRFSGSGSGTDYSLTISNLEPEDIGTYYCQQYSKLPRTFGGGTKLEIK", "EXPERIMENTAL READOUT": "log10 of koff", "ASSAY RESULT": -3.96}
{"BINDER": "<CD138> Ha-Lg (antibody, V domains shown) VH: QVQLQQSGSELMMPGASVKISCKATGYTFSNYWIEWVKQRPGHGLEWIGEILPGTGSTIYNEKFKGKATFTADISSNTVQMQLSSLTSEDSAVYYCARRDYYGNFYYAMDYWGQGTSVTVSS VL: DIQMTQSTSSLSASLGDRVTISCSASQGISNYLNWYQQKPDGTVELLIYYTSSLHSGVPSRFSGSGSGTDYSLTISNLEPEDIGTYYCQQYSKLPRTFGGGTKLEIK", "EXPERIMENTAL READOUT": "log10 of koff", "ASSAY RESULT": -3.54}

In: Find the recorded log10 of koff belonging to <CD138> Ha-La (antibody, V domains shown) VH: QVQLQQSGSELMMPGASVKISCKATGYTFSNYWIEWVKQRPGHGLEWIGEILPGTGSTIYNEKFKGKATFTADISSNTVQMQLSSLTSEDSAVYYCARRDYYGNFYYAMDYWGQGTSVTVSS VL: DIQMTQSTSSLSASLGDRVTISCSASQGINNYLNWYQQKPDGTVELLIYYTSTLHSGVPSRFSGSGSGTDYSLTISNLEPEDIGTYYCQQYSKLPRTFGGGTKLEIK and report it.
Out: -4.19

In: Find the recorded log10 of koff belonging to <CD138> Hg-Lw (antibody, V domains shown) VH: QVQLQQSGSELMMPGASVKISCKATGYTFTGYWIEWVKQRPGHGLEWIGEILPGSGSTNYNEKFKGKATFTADISSNTVQMQLSSLTSEDSAVYYCARRDYYGNFYYAMDYWGQGTSVTVSS VL: DIQMTQSTSSLSASLGDRVTISCSASQGINNYLNWYQQKPDGTVELLIYYTSTLQSGVPSRFSGSGSGTDYSLTISNLEPEDIGTYYCQQYSKLPRTFGGGTKLEIK and report it.
Out: -1.29

In: Find the recorded log10 of koff belonging to <CD138> Hb-Lg (antibody, V domains shown) VH: QVQLQQSGSELMMPGASVKISCKATGYTFTGYWIEWVKQRPGHGLEWIGEILPGTGRTIYNEKFKGKATFTADISSNTVQMQLSSLTSEDSAVYYCARRDYYGNFYYAMDYWGQGTSVTVSS VL: DIQMTQSTSSLSASLGDRVTISCSASQGISNYLNWYQQKPDGTVELLIYYTSSLHSGVPSRFSGSGSGTDYSLTISNLEPEDIGTYYCQQYSKLPRTFGGGTKLEIK and report it.
Out: -3.30

In: Find the recorded log10 of koff belonging to <CD138> Ha-Lw (antibody, V domains shown) VH: QVQLQQSGSELMMPGASVKISCKATGYTFSNYWIEWVKQRPGHGLEWIGEILPGTGSTIYNEKFKGKATFTADISSNTVQMQLSSLTSEDSAVYYCARRDYYGNFYYAMDYWGQGTSVTVSS VL: DIQMTQSTSSLSASLGDRVTISCSASQGINNYLNWYQQKPDGTVELLIYYTSTLQSGVPSRFSGSGSGTDYSLTISNLEPEDIGTYYCQQYSKLPRTFGGGTKLEIK and report it.
Out: -4.15
